Tested on: Hyperlipidemic Hamster
Test: In Vivo Assay of Hypolipidemic Agents Using the Hyperlipidemic Hamster
Conditions: Mesocricetus auratus, po, 168 h, 50 mg/kg once daily oral, 7 days; percent change versus control, negative = lowering; read-out: % Reduction (in vivo) Cholest. Esters

# MOLECULE, TARGET ENTITY, OUTPUT UNIT, change in vivo at 50 mg/kg
rows = [
    ("COc1ccc(N2C(=O)[C@@H](CCCc3ccccc3)[C@H]2c2ccc([S+](C)[O-])cc2)cc1 (relative stereo) [Example 17]", "Hyperlipidemic Hamster", "%", -52),
    ("CC[C@@H]1C(=O)N(c2ccc(OC)cc2)[C@H]1c1ccc(N)cc1 (relative stereo) [Example 8A]", "Hyperlipidemic Hamster", "%", 0),
    ("CCN(CC)c1ccc(N2C(=O)[C@H](CCCc3ccccc3)[C@H]2c2ccc(OC)cc2)cc1 (relative stereo) [Example 7C]", "Hyperlipidemic Hamster", "%", -95),
    ("CC[C@@]1(c2ccccc2)C(=O)N(c2ccc(OC)cc2)[C@H]1c1ccc(OC)cc1 (relative stereo) [Example 1CK]", "Hyperlipidemic Hamster", "%", -28),
    ("COc1ccc(N2C(=O)[C@H](CCCc3ccccc3)[C@@H]2c2cccc(OC(F)(F)F)c2)cc1 (relative stereo) [Example 1BK]", "Hyperlipidemic Hamster", "%", 0),
    ("COc1ccc([C@@H]2[C@@H](CCCc3ccc(N=[N+]=[N-])cc3)C(=O)N2c2ccc(OC)cc2)cc1 (relative stereo) [Example 33]", "Hyperlipidemic Hamster", "%", 0),
    ("COc1ccc(N2C(=O)[C@H](CCCc3ccccc3)[C@H]2c2cc(I)c(O)c(I)c2)cc1 (relative stereo) [Example 32A]", "Hyperlipidemic Hamster", "%", 0),
]
